- System: MDA-MB-231
- Test details: MTT cell viability assay, MDA-MB-231
- Assay type: cell-based
- Conditions used: Homo sapiens, MDA-MB-231 cells, 72 H, average of at least two independent experiments
Measured quantity: IC50

# example entries with known answers
Prompt: What is its IC50 for MDA-MB-231? Entry: N#Cc1cccc(CN2CCN3CCN(Cc4cccc(Cl)c4)C(=O)C3C2)c1 (stereo not drawn)
Completion: 145 nM

Prompt: What is its IC50 for MDA-MB-231? Entry: O=C1C2CN(Cc3cccc(F)c3)CCN2CCN1Cc1cccc(C(F)(F)F)c1 (stereo not drawn)
Completion: 190 nM

Prompt: What is its IC50 for MDA-MB-231? Entry: O=C1C2CN(Cc3ccccc3)CCN2CCN1Cc1ccc(F)cc1 (stereo not drawn)
Completion: 490 nM

More entries:
Prompt: What is its IC50 for MDA-MB-231? Entry: O=C1C2=C(CCN(Cc3ccccc3)C2)N2CCN=C2N1Cc1ccc(F)cc1F [ONC206, reference compound]
Completion: 600 nM

Prompt: What is its IC50 for MDA-MB-231? Entry: N#Cc1cccc(CN2CCN3CCN(Cc4ccc(Cl)cc4)C(=O)C3C2)c1 (stereo not drawn)
Completion: < 100 nM

Prompt: What is its IC50 for MDA-MB-231? Entry: O=C1C2CN(CCCCC(F)(F)F)CCN2CCN1Cc1ccc(C(F)(F)F)cc1 (stereo not drawn)
Completion: 400 nM

###

# pIC50 per entry
- Tested on: PANC1
- Test details: MTT cell viability assay, PANC1
- Assay type: cell-based
- Conditions used: Homo sapiens, PANC-1, PANC1 cells, 72 H, average of at least two independent experiments
# reply with the number alone; pIC50 is -log10 of concentration in mol/L

Prompt: What is its pIC50 for PANC1? Entry: O=C1C2CN(Cc3cccc(F)c3)CCN2CCN1Cc1cccc(Cl)c1 (stereo not drawn) [Compound 4]
Completion: 6.47

Then there is this compound:
Prompt: What is its pIC50 for PANC1? Entry: O=C1C2CN(Cc3cccc(F)c3)CCN2CCN1Cc1cccc(C(F)(F)F)c1 (stereo not drawn) [Compound 13]
Completion: 6.78

###

- Test system: PANC1
- Test details: MTT cell viability assay, PANC1
- Assay type: cell-based
- Conditions used: Homo sapiens, PANC-1, PANC1 cells, 72 H, average of at least two independent experiments
# pIC50 per entry
# reply with the number alone; pIC50 is -log10 of concentration in mol/L

Prompt: What is its pIC50 for PANC1? Entry: O=C1C2CN(CCCCC(F)(F)F)CCN2CCN1Cc1ccc(F)cc1 (centres unmarked)
Completion: 6.48

Prompt: What is its pIC50 for PANC1? Entry: N#Cc1cccc(CN2CCN3CCN(Cc4ccc(F)cc4)C(=O)C3C2)c1 (centres unmarked)
Completion: 6.71

Prompt: What is its pIC50 for PANC1? Entry: O=C1C2CN(CCCCC(F)(F)F)CCN2CCN1Cc1ccc(C(F)(F)F)cc1 (centres unmarked)
Completion: 6.46

Prompt: What is its pIC50 for PANC1? Entry: N#Cc1cccc(CN2CCN3CCN(Cc4cccc(Cl)c4)C(=O)C3C2)c1 (centres unmarked)
Completion: 6.85

Prompt: What is its pIC50 for PANC1? Entry: O=C1C2CN(Cc3cccc(F)c3)CCN2CCN1Cc1ccc(F)cc1 (centres unmarked)
Completion: 6.60

###

# GI50 per entry
- System: Yeast + HsCIpP
- Test details: Yeast growth inhibition screen, yeast expressing human ClpP
- Type: cell-based
- Conditions used: Saccharomyces cerevisiae, 24 h, read-out: Yeast + HsCIpP GI50
Please state the figure in µM; there is no need to write the unit.

# example entries with known answers
Prompt: Item under review: O=C1C2CN(CCCCC(F)(F)F)CCN2CCN1Cc1ccc(C(F)(F)F)cc1 (stereo not drawn) [Compound 8] . Reported GI50?
Completion: 1.65

Prompt: Item under review: N#Cc1cccc(CN2CCN3CCN(Cc4ccc(F)cc4)C(=O)C3C2)c1 (stereo not drawn) [Compound 1] . Reported GI50?
Completion: 0.15

Prompt: Item under review: N#Cc1cccc(CN2CCN3CCN(Cc4ccc(Cl)cc4)C(=O)C3C2)c1 (stereo not drawn) [Compound 3] . Reported GI50?
Completion: 0.065

Prompt: Item under review: O=C1C2=C(CCN(Cc3ccccc3)C2)N2CCN=C2N1Cc1ccc(F)cc1F [ONC206, reference compound] . Reported GI50?
Completion: 4.56

Prompt: Item under review: O=C1C2CN(Cc3ccc(C(F)(F)F)cc3)CCN2CCN1Cc1ccc(C(F)(F)F)cc1 (stereo not drawn) [Compound 14] . Reported GI50?
Completion: 2.58

More entries:
Prompt: Item under review: N#Cc1cccc(CN2CCN3CCN(Cc4cccc(Cl)c4)C(=O)C3C2)c1 (stereo not drawn) [Compound 2] . Reported GI50?
Completion: 0.12

Prompt: Item under review: O=C1C2CN(Cc3cccc(F)c3)CCN2CCN1Cc1cccc(C(F)(F)F)c1 (stereo not drawn) [Compound 13] . Reported GI50?
Completion: 0.04

Prompt: Item under review: O=C1C2CN(Cc3cccc(F)c3)CCN2CCN1Cc1ccc(Cl)cc1 (stereo not drawn) [Compound 6] . Reported GI50?
Completion: 0.06

Prompt: Item under review: O=C1C2CN(Cc3ccccc3)CCN2CCN1Cc1cccc(Cl)c1 (stereo not drawn) [Compound 9] . Reported GI50?
Completion: 0.69

Prompt: Item under review: O=C1C2CN(Cc3cccc(F)c3)CCN2CCN1Cc1cccc(Cl)c1 (stereo not drawn) [Compound 4] . Reported GI50?
Completion: 0.21

Prompt: Item under review: O=C1C2CN(Cc3ccccc3)CCN2CCN1Cc1ccc(C(F)(F)F)cc1 (stereo not drawn) [Compound 10] . Reported GI50?
Completion: 0.18

Prompt: Item under review: O=C1C2CN(Cc3cccc(F)c3)CCN2CCN1Cc1ccc(F)cc1 (stereo not drawn) [Compound 5] . Reported GI50?
Completion: 0.14

Prompt: Item under review: N#Cc1cccc(CN2CCN3CCN(Cc4ccc(C(F)(F)F)cc4)C(=O)C3C2)c1 (stereo not drawn) [Compound 12] . Reported GI50?
Completion: 0.075

Prompt: Item under review: O=C1C2CN(Cc3ccccc3)CCN2CCN1Cc1ccc(F)cc1 (stereo not drawn) [Compound 11] . Reported GI50?
Completion: 0.62

Prompt: Item under review: O=C1C2CN(CCCCC(F)(F)F)CCN2CCN1Cc1ccc(F)cc1 (stereo not drawn) [Compound 7] . Reported GI50?
Completion: 2.05

###

- Tested on: 4T1
- Test details: MTT cell viability assay, 4T1
- Format: cell-based
- Conditions used: Mus musculus, 4T1, 48 h, read-out: IC50 4T1 48 H
Measured quantity: IC50 (nM)
Please state the figure in nM; there is no need to write the unit.

Prompt: Item under review: Cc1ccccc1CN1C(=O)C2=C(CCN(Cc3ccccc3)C2)N2CCN=C12 [ONC201, reference compound] . Reported IC50?
Completion: 2220

###

- Test system: PANC1
- Test details: MTT cell viability assay, PANC1
- Type: cell-based
- Conditions used: Homo sapiens, PANC-1, PANC1 cells, 72 H, average of at least two independent experiments
Threshold-based label: IC50 under 0.6 µM gives t, IC50 not under 0.6 µM gives f.

Prompt: Please indicate whether the reported IC50 of Cc1ccccc1CN1C(=O)C2=C(CCN(Cc3ccccc3)C2)N2CCN=C12 [ONC201, reference compound] is strictly below 0.6 µM.
Completion: f

Prompt: Please indicate whether the reported IC50 of O=C1C2=C(CCN(Cc3ccccc3)C2)N2CCN=C2N1Cc1ccc(F)cc1F [ONC206, reference compound] is strictly below 0.6 µM.
Completion: t

Prompt: Please indicate whether the reported IC50 of O=C1C2CN(Cc3ccc(C(F)(F)F)cc3)CCN2CCN1Cc1ccc(C(F)(F)F)cc1 (centres unmarked) is strictly below 0.6 µM.
Completion: t

More entries:
Prompt: Please indicate whether the reported IC50 of O=C1C2CN(Cc3cccc(F)c3)CCN2CCN1Cc1ccc(Cl)cc1 (centres unmarked) is strictly below 0.6 µM.
Completion: t

Prompt: Please indicate whether the reported IC50 of N#Cc1cccc(CN2CCN3CCN(Cc4ccc(Cl)cc4)C(=O)C3C2)c1 (centres unmarked) is strictly below 0.6 µM.
Completion: t

Prompt: Please indicate whether the reported IC50 of O=C1C2CN(Cc3ccccc3)CCN2CCN1Cc1cccc(Cl)c1 (centres unmarked) is strictly below 0.6 µM.
Completion: f

Prompt: Please indicate whether the reported IC50 of O=C1C2CN(Cc3ccccc3)CCN2CCN1Cc1ccc(C(F)(F)F)cc1 (centres unmarked) is strictly below 0.6 µM.
Completion: f

###

- System: MDA-MB-231
- Test details: MTT cell viability assay, MDA-MB-231
- Assay type: cell-based
- Conditions used: Homo sapiens, MDA-MB-231 cells, 72 H, average of at least two independent experiments
Measured quantity: IC50 (nM)
Please state the figure in nM; there is no need to write the unit.

Prompt: Item under review: O=C1C2CN(Cc3ccccc3)CCN2CCN1Cc1cccc(Cl)c1 (stereo not drawn) . Reported IC50?
Completion: 935

Prompt: Item under review: O=C1C2CN(CCCCC(F)(F)F)CCN2CCN1Cc1ccc(F)cc1 (stereo not drawn) . Reported IC50?
Completion: 430

Prompt: Item under review: Cc1ccccc1CN1C(=O)C2=C(CCN(Cc3ccccc3)C2)N2CCN=C12 [ONC201, reference compound] . Reported IC50?
Completion: 2280

Prompt: Item under review: O=C1C2CN(Cc3cccc(F)c3)CCN2CCN1Cc1ccc(Cl)cc1 (stereo not drawn) . Reported IC50?
Completion: 190

More entries:
Prompt: Item under review: N#Cc1cccc(CN2CCN3CCN(Cc4ccc(F)cc4)C(=O)C3C2)c1 (stereo not drawn) . Reported IC50?
Completion: 120
